Data provenance is patent US20080234198A1.

system_name: T1, rat VPAC2 receptor (rat, UniProt P35000 23-437)
T1 sequence (looked up): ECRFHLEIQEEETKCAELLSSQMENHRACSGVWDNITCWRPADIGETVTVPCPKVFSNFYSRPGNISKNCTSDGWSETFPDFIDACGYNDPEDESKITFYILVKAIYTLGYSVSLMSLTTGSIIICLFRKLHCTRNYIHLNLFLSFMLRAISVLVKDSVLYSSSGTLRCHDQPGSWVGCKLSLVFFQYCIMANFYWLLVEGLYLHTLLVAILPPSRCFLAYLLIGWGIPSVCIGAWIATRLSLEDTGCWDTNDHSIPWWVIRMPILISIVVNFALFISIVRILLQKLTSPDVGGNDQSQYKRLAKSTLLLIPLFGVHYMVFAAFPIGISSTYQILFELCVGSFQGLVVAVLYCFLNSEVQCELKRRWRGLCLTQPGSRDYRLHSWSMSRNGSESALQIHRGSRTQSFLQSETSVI
measurement_notes: cell-based or functional assay
Assign labels as follows, please: condition met for Rat VPAC2 Receptor: DiscoveRx: (EC50; nM) below 40 nM; condition not met for Rat VPAC2 Receptor: DiscoveRx: (EC50; nM) equal to or exceeding 40 nM.

- binder: "HSDAVFTEQYTXLRXQVAAXCYLQSIXXGGPSSGAPPPS (C6-HSDAVFTEQY(OMe)TOrnLRAibQVAAAibC(PEG40K)YLQSIOrnOrnGGPSSGAPPPS-NH2) [P460]"
  qualitative_label: "condition not met"
- binder: "HSDAVFTEQYTXLRXQVCAXXYLQSIXXGGPSSGAPPPS (C6-HSDAVFTEQY(OMe)TOrnLRAibQVC(PEG40K)AAibOrnYLQSIOrnOrnGGPSSGAPPPS-NH2) [P478]"
  qualitative_label: "condition not met"

Task item: hey, is Rat VPAC2 Receptor: DiscoveRx: (EC50; nM) for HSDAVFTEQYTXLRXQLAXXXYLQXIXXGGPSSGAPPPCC (C6-HSDAVFTEQY(OMe)TOrnLRAibQLAAbuAibOrnYLQAibIOrnOrnGGPSSGAPPPC(PEG30K)C(PEG30K)-NH2) [P570] lower than 40 nM or not?
Reply: condition met

Task item: HSDAVFTEQYTXLRXQLXAXXYLQSIXXGGPSSGAPPPCC (C6-HSDAVFTEQY(OMe)TOrnLRAibQLAbuAAibOrnYLQSIOrnOrnGGPSSGAPPPC(PEG20K)C(PEG20K)-NH2) [P590] ?
Reply: condition met

Task item: HSDAVFTEQYTXLRXQLAXXXYXQXIXXGGPSSGAPPPCC (C6-HSDAVFTEQY(OMe)TOrnLRAibQLAAbuAibOrnYAibQAibIOrnOrnGGPSSGAPPPC(PEG20K)C(PEG20K)-NH2) [P525] ?
Reply: condition not met

Task item: HSDAVFTEQYTXLRXQVAAXXYLCSIXXGGPSSGAPPPC (C6-HSDAVFTEQY(OMe)TOrnLRAibQVAAAibOrnYLC(PEG20K)SIOrnOrnGGPSSGAPPPC(PEG20K)-NH2) [P501] ?
Reply: condition not met
